Below, each of the binders is paired with its reported scatter score 0-4, MLP29, 0.001 nM value.
- targetOrSystem: native mouse MET on living cells (mouse, UniProt P16056 25-1379)
- testName: cell-based or functional assay
Answer with a number only, understood to be in score.

Here are 2 binders together with their reported answers.
binder	scatter score 0-4, MLP29, 0.001 nM (score)
71C3 chimeric llama-human IgG1 mAb (antibody, V domains shown, llama VH on human IgG1 CH1-CH2-CH3, llama VL on human lambda CL) VH: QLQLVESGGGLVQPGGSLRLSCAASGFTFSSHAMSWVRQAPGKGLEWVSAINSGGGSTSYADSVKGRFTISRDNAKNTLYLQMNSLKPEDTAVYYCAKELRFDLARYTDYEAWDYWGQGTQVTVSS VL: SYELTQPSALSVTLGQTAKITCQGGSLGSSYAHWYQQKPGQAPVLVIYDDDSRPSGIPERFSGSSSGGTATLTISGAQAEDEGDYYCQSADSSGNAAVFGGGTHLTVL	0
71D6 chimeric llama-human IgG1 mAb (antibody, V domains shown, llama VH on human IgG1 CH1-CH2-CH3, llama VL on human lambda CL) VH: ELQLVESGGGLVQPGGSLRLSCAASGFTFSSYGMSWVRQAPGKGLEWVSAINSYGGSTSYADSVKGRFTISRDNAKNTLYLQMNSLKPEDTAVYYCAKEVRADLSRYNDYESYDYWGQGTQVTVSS VL: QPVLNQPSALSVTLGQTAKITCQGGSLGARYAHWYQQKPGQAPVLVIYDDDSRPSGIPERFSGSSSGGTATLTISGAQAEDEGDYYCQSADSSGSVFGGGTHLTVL	0

Below: the item to evaluate.
Task: Using known records, supply scatter score 0-4, MLP29, 0.001 nM for 71G2 chimeric llama-human IgG1 mAb (antibody, V domains shown, llama VH on human IgG1 CH1-CH2-CH3, llama VL on human lambda CL) VH: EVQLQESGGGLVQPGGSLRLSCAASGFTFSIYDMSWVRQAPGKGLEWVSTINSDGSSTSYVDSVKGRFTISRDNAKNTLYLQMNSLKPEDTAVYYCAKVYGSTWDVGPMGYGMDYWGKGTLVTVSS VL: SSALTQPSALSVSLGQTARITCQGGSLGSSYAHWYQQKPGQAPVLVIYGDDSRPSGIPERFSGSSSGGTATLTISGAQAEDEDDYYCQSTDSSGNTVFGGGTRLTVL
Output: 0
